- Tested on: HT-29
- Test details: Cytotoxicity against human HT-29 cells assessed as inhibition of cell growth after 72 hrs by MTT assay
- Format: functional, cell-based
- Measurement context: HT-29, 72 h
# strict inequality: IC50 < 40 µM yields rule met, everything else yields rule not met

| Compound | Class label |
| --- | --- |
| O=C1N/C(=N/c2nc3cc(-c4ccc(Br)cc4)sc3s2)S/C1=C/c1ccc(Cl)cc1 | rule met |
| O=C1N/C(=N/c2nc3cc(-c4ccc(Cl)cc4)sc3s2)S/C1=C/c1ccc2ccccc2c1 | rule not met |
| O=C1N/C(=N/c2nc3cc(-c4ccc(Cl)cc4)sc3s2)S/C1=C/c1ccc(Cl)cc1 | rule not met |
| COc1ccc(/C=C2/S/C(=N\c3nc4cc(-c5ccc(Cl)cc5)sc4s3)NC2=O)cc1 | rule met |
| O=C1CS/C(=N\c2nc3cc(-c4ccc(Cl)cc4)sc3s2)N1 | rule met |
| O=C1CS/C(=N\c2nc3cc(-c4ccc(Cl)cc4)[se]c3s2)N1 | rule not met |
| O=C1N/C(=N/c2nc3cc(-c4ccc(Cl)cc4)sc3s2)S/C1=C/c1ccc(F)cc1 | rule not met |
| CN(C)c1ccc(/C=C2/S/C(=N\c3nc4cc(-c5ccc(Cl)cc5)sc4s3)NC2=O)cc1 | rule not met |
| Cc1ccc(/C=C2/S/C(=N\c3nc4cc(-c5ccc(Cl)cc5)sc4s3)NC2=O)cc1 | rule not met |
